Origin of measurements: ChEMBL document CHEMBL4689842

# Test system: U2OS
# Experiment description: Multiplex assay against U2OS
# Format: toxicity, cell-based
# Run parameters: human, 12 h, 10 µM, compound concentration 10 uM, replicate 2
Measured Population Mitochondria Different-Phenotype (%) of individual entries
Write the number in % without appending the unit.

// worked examples, Population Mitochondria Different-Phenotype (%) included
CCN1CCN(Cc2ccc(Nc3ncc(F)c(-c4cc(F)c5nc(C)n(C(C)C)c5c4)n3)nc2)CC1.CS(=O)(=O)O : 94
COc1cc2ncnc(Nc3ccc(F)c(Cl)c3)c2cc1NC(=O)/C=C/CN1CCCCC1 [DACOMITINIB ANHYDROUS] : 17
CCN1CCN(c2ccc(Nc3cc(N(C)C(=O)Nc4c(Cl)c(OC)cc(OC)c4Cl)ncn3)cc2)CC1 : 18

If you can, please state the reported Population Mitochondria Different-Phenotype (%) value of C=C1/C(=C\C=C2/CCC[C@]3(C)[C@@H]([C@H](C)/C=C/[C@H](C)C(C)C)CC[C@@H]23)C[C@@H](O)C[C@@H]1O . 21

Endpoint output: Population Mitochondria Different-Phenotype (%) of O=C1NC(=O)C(c2cnc3ccccn23)=C1c1cn2c3c(cc(F)cc13)CN(C(=O)N1CCCCC1)CC2 . Value? 96

Could you share which Population Mitochondria Different-Phenotype (%) value was measured for CCc1cccc(CC)c1NC(=O)c1nn(C)c2c1CCc1cnc(Nc3ccc(C(=O)NC4CCN(C)CC4)cc3OC(F)(F)F)nc1-2 ? 98

* * *

# Test system: Fibroblast
# Experiment description: Incucyte cell viability with human fibroblast; also: filed as whole numbers so only -1 and 0 and 1 occur
# Assay type: toxicity, cell-based
# Run parameters: 12 h, 10 µM, compound concentration 10 uM, replicate number 1, timepoint 12 hours
The entries below come with measured Growth Rate values attached.
Please reply with the value in numeric form only.

Field: example entries. Status: answers known.
CCC[C@H](Oc1cc(C)c(-n2cc(C(F)(F)F)cn2)c(C)c1)c1ccc(C(=O)NCCC(=O)O)cc1 : 0
Cc1oncc1C(=O)Nc1ccc(C(F)(F)F)cc1 [LEFLUNOMIDE] : 1
CCc1cccc(CC)c1NC(=O)c1nn(C)c2c1CCc1cnc(Nc3ccc(N4CCN(C)CC4)cc3OC)nc1-2 : 0
CC(C)(C)OC(=O)N1CCCC1CNC1CCC(c2cc(F)ccc2F)(S(=O)(=O)c2ccc(Cl)cc2)CC1 (stereo not drawn) : 0
COc1cccc2cc(-c3nc([C@H]4CC[C@H](C(=O)O)CC4)n4ncnc(N)c34)[nH]c12 : 0
Cc1nnc2c3ccccc3c(N[C@@H](C)[C@H](c3ccccc3)N(C)C)nn12 : 1
CCN(CC)S(=O)(=O)Nc1cccc(-c2ccc3c(NC(=O)C4CC4)n[nH]c3c2)c1 : 0
c1ccc(Nc2nc3c(s2)CCCc2[nH]ncc2-3)nc1 : 1
CCNc1cc(N[C@H]2CC[C@H](O)CC2)nc(Nc2ccc3c(ccn3Cc3ccccc3)c2)n1 : 0
COc1cc2c(CCNC(C)=O)c[nH]c2cc1Cl : 1

Next up:
For the molecule COc1cc(N2CCC(N3CCN(C)CC3)CC2)ccc1Nc1ncnc(Nc2ccccc2S(=O)(=O)C(C)C)n1 , what Growth Rate is on record? 0

* * *

# Tested on: U2OS
# Experiment description: Multiplex assay against U2OS
# Type: toxicity, cell-based
# Run parameters: human, 12 h, 1 µM, compound concentration 1 uM, replicate 2
Rule: TRUE for Total Cell Count not less than 90, FALSE for anything less.

Please review the entries below; each comes with its answer.
CN(C)C(=O)C(CCN1CCC(O)(c2ccc(Cl)cc2)CC1)(c1ccccc1)c1ccccc1.Cl [LOPERAMIDE HYDROCHLORIDE] : FALSE
CN1CCN(C(=O)C(C)(C)c2ccc(C(=O)Nc3cn4cc(-c5cc(C(C)(C)C)cc(C(C)(C)C)c5)ccc4n3)cc2)CC1 [T3-CLK-N] : FALSE
O=C(Nc1cccnn1)N1CCC(=Cc2cccc(Oc3ccc(C(F)(F)F)cn3)c2)CC1 : TRUE
CCc1cccc(CC)c1NC(=O)c1nn(C)c2c1CCc1cnc(Nc3ccc(N4CCN(C)CC4)cc3OC)nc1-2 : FALSE
CCCS(=O)(=O)c1nc(NC2CC2)cc(-c2ccc3c(ccn3C3CC(C)(C)NC(C)(C)C3)c2)n1 : TRUE

Form field: Total Cell Count at least 90? Entry: Cc1ccc2nc(NCCN)c3ncc(C)n3c2c1.O=C(O)C(F)(F)F.O=C(O)C(F)(F)F TRUE

For this compound, is measured Total Cell Count 90 or higher? O=C1NC(=O)C(c2cnc3ccccn23)=C1c1cn2c3c(cc(F)cc13)CN(C(=O)N1CCCCC1)CC2 [LY-2090314] FALSE

Does Total Cell Count meet or surpass 90 for CN1C2CCC1CC(OC(c1ccc(F)cc1)c1ccc(F)cc1)C2.Cl (centres undefined) ? FALSE

* * *

# System: U2OS
# Experiment description: Multiplex assay against U2OS
# Type: toxicity, cell-based
# Run parameters: human, 48 h, 1 µM, compound concentration 1 uM, replicate 2
Quick list: Total Cell Count per entry.
In your answer, state the number alone without any accompanying words.

CCN1CCN(Cc2ccc(Nc3ncc(F)c(-c4cc(F)c5nc(C)n(C(C)C)c5c4)n3)nc2)CC1.CS(=O)(=O)O : 81
CCOc1cc(C(=O)N2CCC(N3CCN(C)CC3)CC2)ccc1Nc1ncc2c(n1)N(C1CCCC1)c1ccccc1C(=O)N2C : 81

Please turn your attention to the following entry.
Observed Total Cell Count on U2OS for O=C1NC(=O)C(c2cnc3ccccn23)=C1c1cn2c3c(cc(F)cc13)CN(C(=O)N1CCCCC1)CC2 [LY-2090314] , please. 82

* * *

# Test system: U2OS
# Experiment description: Multiplex assay against U2OS
# Format: toxicity, cell-based
# Run parameters: human, 12 h, 10 µM, compound concentration 10 uM, replicate 2
Property name: Population Membrane Permeable-Phenotype (%)
Please don't drop the unit; write it after the number.

Look at this molecule and give its reported Population Membrane Permeable-Phenotype (%). CNc1cc(Oc2cc(C(=O)Nc3cc(N4CCN(C)CC4)cc(C(F)(F)F)c3)ccc2C)ncn1 58%

# query: Population Membrane Permeable-Phenotype (%) of entry CCOC(=O)c1c(C)[nH]c2ccc3c(c12)CN1CCc2cc(OC)ccc2C1O3 (stereo not given) 70%

* * *

Population Pyknosed Nuclei (%) values, listed per item
# Test system: U2OS
# Experiment description: Multiplex assay against U2OS
# Type: toxicity, cell-based
# Run parameters: human, 12 h, 10 µM, compound concentration 10 uM, replicate 1
Kindly answer with a numeric value in %, unit omitted.

Some molecules with recorded Population Pyknosed Nuclei (%):
CCCS(=O)(=O)Nc1ccc(F)c(C(=O)c2c[nH]c3ncc(Cl)cc23)c1F : 4
Cn1nc(C(F)(F)F)cc1-c1cnc(N2CCc3cc(S(=O)(=O)Nc4c(F)cc(Cl)cc4F)cc(N4CCCC4=O)c32)nc1 : 3

What value of measured Population Pyknosed Nuclei (%) is listed for C=C1/C(=C\C=C2/CCC[C@]3(C)[C@@H]([C@H](C)/C=C/[C@H](C)C(C)C)CC[C@@H]23)C[C@@H](O)C[C@@H]1O ? 19

* * *

# reported Population Pyknosed Nuclei (%); entries follow
# Test system: HEK-293T
# Experiment description: Multiplex assay against HEK293T
# Format: toxicity, cell-based
# Run parameters: human, 24 h, 1 µM, compound concentration 1 uM, replicate 2
Write your answer as a measured quantity: the number, then the unit.

Consider the following illustrative entries.
CCn1cc(-c2ccnc3[nH]c(-c4cccc(CN(C)C)c4)cc23)c(-c2ccc(NC(=O)N(C)C)cc2)n1 [GSK-1070916] : 5%
CN1CCN(C(=O)C(C)(C)c2ccc(C(=O)Nc3cn4cc(-c5cc(C(C)(C)C)cc(C(C)(C)C)c5)ccc4n3)cc2)CC1 [T3-CLK-N] : 5%

Next compound, Population Pyknosed Nuclei (%) to be filled in.
Entry Cl.Oc1ccc2c3c1O[C@H]1c4[nH]c5c(c4C[C@@]4(O)[C@@H](C2)N(CC2CC2)CC[C@]314)C[C@@]1(O)[C@H]2Cc3ccc(O)c4c3[C@@]1(CCN2CC1CC1)[C@H]5O4 has what Population Pyknosed Nuclei (%)? 39%

* * *

# Tested on: U2OS
# Experiment description: Multiplex assay against U2OS
# Assay type: toxicity, cell-based
# Run parameters: human, 48 h, 10 µM, compound concentration 10 uM, replicate 2
Property name: Population Hoechst High Intensity Objects (%)
Answer format: numeric, % implied, no suffix.

Completed entries (count: 3):
CCCn1c(=O)c2[nH]c(-c3cnn(Cc4cccc(C(F)(F)F)c4)c3)nc2n(CC)c1=O [GS 6201] : 2
CCCS(=O)(=O)c1nc(NC2CC2)cc(-c2ccc3c(ccn3C3CC(C)(C)NC(C)(C)C3)c2)n1 : 8
CN1C2CCC1CC(OC(c1ccc(F)cc1)c1ccc(F)cc1)C2.Cl (stereo unspecified) : 6

Value lookup for Population Hoechst High Intensity Objects (%); key = Cl.Oc1ccc2c3c1O[C@H]1c4[nH]c5c(c4C[C@@]4(O)[C@@H](C2)N(CC2CC2)CC[C@]314)C[C@@]1(O)[C@H]2Cc3ccc(O)c4c3[C@@]1(CCN2CC1CC1)[C@H]5O4 8

I have this compound here, Cc1cn(-c2cc(NC(=O)c3ccc(C)c(Nc4nccc(-c5cccnc5)n4)c3)cc(C(F)(F)F)c2)cn1 [NILOTINIB] , and I need its recorded Population Hoechst High Intensity Objects (%). 4

Recorded Population Hoechst High Intensity Objects (%) for CN(C)C(=O)C(CCN1CCC(O)(c2ccc(Cl)cc2)CC1)(c1ccccc1)c1ccccc1.Cl [LOPERAMIDE HYDROCHLORIDE] , please? 21
